Assay: physchem
Assay type: physicochemical
Details: pH 7.4, aqueous buffer, kinetic from dmso stock
# label = met if solubility at 24 h >= 40 µg/mL else not met

COMPOUND	LABEL
COc1ccc2nccc(-n3cc(CCNCc4ccc5c(c4)NC(=O)CS5)nn3)c2n1 [BDM71403 (10a)]	met
COc1ccc2nccc(-n3cc(CCNCc4ccc5c(c4)OCCO5)nn3)c2c1	met
COc1ccc2nccc(-n3cc(CCNCc4ccc5c(c4)NC(=O)CO5)nn3)c2c1	met
COc1ccc2nccc(-n3cc(CCNCc4ccc5c(c4)NC(=O)CS5)nn3)c2c1	met
COc1ccc2nccc(-n3cc(CCNC(=O)c4ccc5c(c4)OCCO5)nn3)c2c1 [BDM71373 (11b)]	not met
COc1ccc2nccc(-n3cc(CCNC(=O)c4ccc5c(c4)NC(=O)CS5)nn3)c2c1 [BDM71367 (11a)]	not met
COc1ccc2nccc(-n3cc(CCNCc4ccc5c(c4)OCCO5)nn3)c2n1 [BDM71404 (10b)]	met
